# test: clinical
# experimental context: human, plasma, oral, 6 mg, t1/2F (functional half-life), 6 mg BID, Day 29, subjects with RA; harmonic mean

[
  {
    "compound": "CC[C@@H]1CN(C(=O)NCC(F)(F)F)C[C@@H]1c1cnc2cnc3[nH]ccc3n12 [Compound 1]",
    "half-life": "3.5 h"
  }
]

====

# test: clinical
# experimental context: human, urine and plasma, oral, 12 mg, CLr, 12 mg BID, Day 28, subjects with RA

[
  {
    "chemical structure": "CC[C@@H]1CN(C(=O)NCC(F)(F)F)C[C@@H]1c1cnc2cnc3[nH]ccc3n12",
    "CL renal, mL/min": 104
  }
]
